// values below are reported Height
System: rice
assay_notes: Low temperature assay on rice seedlings
Assay type: in vivo
condition_description: 0.001 mg/l, 5 °C, 9 days
// units = cm; emit number, no label

The following compounds have reported results that may help.
compound	endpoint_unit	Height
CC[C@@H](C(C)C)[C@@H](O)[C@H](O)[C@@H](C)[C@H]1CCC2C3COC(=O)C4C[C@H](O)[C@H](O)C[C@]4(C)C3CC[C@@]21C (stereo partly drawn)	cm	7.8
CC(C)C[C@@H](O)[C@H](O)[C@@H](C)[C@H]1CCC2C3CC(=O)C4C[C@H](O)[C@H](O)C[C@]4(C)C3CC[C@@]21C (stereo partly drawn)	cm	7.6

Here is another compound to look at.
Param readout= Height; system= rice; entry= CC(C)[C@H](C)[C@@H](O)[C@H](O)[C@@H](C)[C@H]1CCC2C3CC(=O)C4C[C@H](O)CC[C@]4(C)C3CC[C@@]21C (stereo partly drawn) ; returns value.
7.4
